test system: Escherichia coli; assay: minimum inhibitory concentration (MIC); settings: isolate (source animal id): 106
measurement.label: minimum inhibitory concentration

>  <smiles.entry>
CS(=O)(=O)c1ccc([C@@H](O)[C@@H](CF)NC(=O)C(Cl)Cl)cc1

>  <meas.value>
> 8 µg/mL

$$$$
>  <smiles.entry>
CCCNC[C@]1(O)[C@H](C)O[C@@H](O[C@H]2[C@H](C)[C@@H](O[C@@H]3O[C@H](C)C[C@H](N(C)C)[C@H]3O)[C@](C)(O)C[C@@H](C)CN[C@H](C)[C@@H](O)[C@](C)(O)[C@@H](CC)OC(=O)[C@@H]2C)C[C@@]1(C)OC

>  <meas.value>
16 µg/mL

$$$$
>  <smiles.entry>
CN1C[C@@H]2C[C@H]1CN2c1cc2c(cc1F)c(=O)c(C(=O)O)cn2C1CC1

>  <meas.value>
> 1 µg/mL

$$$$

* * *

test system: Mannheimia haemolytica; test: minimum inhibitory concentration (MIC); conditions: isolate (source animal id): 173

>  <smiles.entry>
CCC[C@@H]1C[C@@H](C(=O)N[C@@H]([C@H]2O[C@H](SC)[C@H](O)[C@@H](O)[C@H]2O)[C@H](C)Cl)N(C)C1

>  <bound.type>
=

>  <minimum inhibitory concentration (µg/mL)>
16

$$$$
>  <smiles.entry>
CS(=O)(=O)c1ccc([C@@H](O)[C@@H](CF)NC(=O)C(Cl)Cl)cc1

>  <bound.type>
=

>  <minimum inhibitory concentration (µg/mL)>
1

$$$$
>  <smiles.entry>
CC[C@H]1OC(=O)C[C@@H](O)[C@H](C)[C@@H](O[C@@H]2O[C@H](C)[C@@H](O)[C@H](N(C)C)[C@H]2O)[C@@H](CCN2C[C@H](C)C[C@H](C)C2)C[C@@H](C)C(=O)/C=C/C(C)=C/[C@@H]1CO[C@@H]1O[C@H](C)[C@@H](O)[C@@H](OC)[C@H]1OC

>  <bound.type>
=

>  <minimum inhibitory concentration (µg/mL)>
16

$$$$
>  <smiles.entry>
CCCNC[C@]1(O)[C@H](C)O[C@@H](O[C@H]2[C@H](C)[C@@H](O[C@@H]3O[C@H](C)C[C@H](N(C)C)[C@H]3O)[C@](C)(O)C[C@@H](C)CN[C@H](C)[C@@H](O)[C@](C)(O)[C@@H](CC)OC(=O)[C@@H]2C)C[C@@]1(C)OC

>  <bound.type>
≤

>  <minimum inhibitory concentration (µg/mL)>
8

$$$$
>  <smiles.entry>
CN[C@@H]1[C@H](O)[C@H](NC)[C@H]2O[C@@]3(O)C(=O)C[C@@H](C)O[C@H]3O[C@@H]2[C@H]1O

>  <bound.type>
=

>  <minimum inhibitory concentration (µg/mL)>
32

$$$$

* * *

The molecules listed here are annotated with their minimum inhibitory concentration.
tested on: Escherichia coli; assay: minimum inhibitory concentration (MIC); conditions: isolate (source animal id): 123
measurement.label: minimum inhibitory concentration

>  <smiles.entry>
CN(C)[C@@H]1C(O)=C(C(N)=O)C(=O)[C@@]2(O)C(O)=C3C(=O)c4c(O)cccc4[C@@](C)(O)[C@H]3C[C@@H]12

>  <measurement.label>
minimum inhibitory concentration

>  <meas.value>
> 8 µg/mL

$$$$
>  <smiles.entry>
CCN1CCN(c2cc3c(cc2F)c(=O)c(C(=O)O)cn3C2CC2)CC1

>  <measurement.label>
minimum inhibitory concentration

>  <meas.value>
≤ 0.12 µg/mL

$$$$
>  <smiles.entry>
CO/N=C(\C(=O)N[C@@H]1C(=O)N2C(C(=O)O)=C(CSC(=O)c3ccco3)CS[C@H]12)c1csc(N)n1

>  <measurement.label>
minimum inhibitory concentration

>  <meas.value>
≤ 0.25 µg/mL

$$$$
>  <smiles.entry>
CC[C@H]1OC(=O)C[C@@H](O)[C@H](C)[C@@H](O[C@@H]2O[C@H](C)[C@@H](O[C@H]3C[C@@](C)(O)[C@@H](O)[C@H](C)O3)[C@H](N(C)C)[C@H]2O)[C@@H](CC=O)C[C@@H](C)C(=O)/C=C/C(C)=C/[C@@H]1CO[C@@H]1O[C@H](C)[C@@H](O)[C@@H](OC)[C@H]1OC

>  <measurement.label>
minimum inhibitory concentration

>  <meas.value>
> 32 µg/mL

$$$$

* * *

test system: Escherichia coli; assay: minimum inhibitory concentration (MIC); conditions: isolate (source animal id): 102
The compounds listed here are annotated with their minimum inhibitory concentration.
measurement.label: minimum inhibitory concentration (µg/mL)

>  <smiles.entry>
CC1(C)S[C@@H]2[C@H](NC(=O)[C@H](N)c3ccccc3)C(=O)N2[C@H]1C(=O)O

>  <readout.units>
µg/mL

>  <bound.type>
=

>  <meas.value>
2

$$$$
>  <smiles.entry>
CO/N=C(\C(=O)N[C@@H]1C(=O)N2C(C(=O)O)=C(CSC(=O)c3ccco3)CS[C@H]12)c1csc(N)n1

>  <readout.units>
µg/mL

>  <bound.type>
=

>  <meas.value>
0.5

$$$$
>  <smiles.entry>
CC1(C)S[C@@H]2[C@H](NC(=O)Cc3ccccc3)C(=O)N2[C@H]1C(=O)O

>  <readout.units>
µg/mL

>  <bound.type>
>

>  <meas.value>
8

$$$$
>  <smiles.entry>
NC[C@@H]1O[C@H](O[C@H]2[C@@H](O)[C@H](O[C@@H]3[C@@H](O)[C@H](N)C[C@H](N)[C@H]3O[C@H]3O[C@H](CN)[C@@H](O)[C@H](O)[C@H]3N)O[C@@H]2CO)[C@H](N)[C@@H](O)[C@@H]1O

>  <readout.units>
µg/mL

>  <bound.type>
≤

>  <meas.value>
4

$$$$
>  <smiles.entry>
COc1cc(Cc2cnc(N)nc2N)cc(OC)c1OC.Cc1cc(NS(=O)(=O)c2ccc(N)cc2)no1

>  <readout.units>
µg/mL

>  <bound.type>
≤

>  <meas.value>
2

$$$$

* * *

test system: Mannheimia haemolytica; assay: minimum inhibitory concentration (MIC); conditions: isolate (source animal id): 187
The compounds listed here are annotated with their minimum inhibitory concentration.

>  <compound>
CC[C@H]1OC(=O)C[C@@H](O)[C@H](C)[C@@H](O[C@@H]2O[C@H](C)[C@@H](O[C@H]3C[C@@](C)(O)[C@@H](O)[C@H](C)O3)[C@H](N(C)C)[C@H]2O)[C@@H](CC=O)C[C@@H](C)C(=O)/C=C/C(C)=C/[C@@H]1CO[C@@H]1O[C@H](C)[C@@H](O)[C@@H](OC)[C@H]1OC [Tylosin]

>  <system.name>
Mannheimia haemolytica

>  <bound.type>
>

>  <minimum inhibitory concentration [µg/mL]>
32

$$$$
>  <compound>
C=C[C@]1(C)C[C@@H](OC(=O)CSCCN(CC)CC)[C@]2(C)[C@H](C)CC[C@]3(CCC(=O)[C@H]32)[C@@H](C)[C@@H]1O [Tiamulin]

>  <system.name>
Mannheimia haemolytica

>  <bound.type>
=

>  <minimum inhibitory concentration [µg/mL]>
16

$$$$
>  <compound>
CN[C@@H]1[C@H](O)[C@H](NC)[C@H]2O[C@@]3(O)C(=O)C[C@@H](C)O[C@H]3O[C@@H]2[C@H]1O [Spectinomycin]

>  <system.name>
Mannheimia haemolytica

>  <bound.type>
=

>  <minimum inhibitory concentration [µg/mL]>
32

$$$$
>  <compound>
COc1cc(NS(=O)(=O)c2ccc(N)cc2)nc(OC)n1 [sulfadimethoxine]

>  <system.name>
Mannheimia haemolytica

>  <bound.type>
>

>  <minimum inhibitory concentration [µg/mL]>
256

$$$$

* * *

test system: Mannheimia haemolytica; experiment: minimum inhibitory concentration (MIC); details: isolate (source animal id): 299

>  <molecule>
CCCN1C[C@H](C)[C@@H](O)[C@](C)(O)[C@@H](CC)OC(=O)[C@H](C)[C@@H](O[C@H]2C[C@@](C)(OC)[C@@H](O)[C@H](C)O2)[C@H](C)[C@@H](O[C@@H]2O[C@H](C)C[C@H](N(C)C)[C@H]2O)[C@](C)(O)C[C@H]1C [Gamithromycin]

>  <bound.type>
>

>  <minimum inhibitory concentration, µg/mL>
8

$$$$
>  <molecule>
CCN1CCN(c2cc3c(cc2F)c(=O)c(C(=O)O)cn3C2CC2)CC1 [Enrofloxacin]

>  <bound.type>
=

>  <minimum inhibitory concentration, µg/mL>
0.5

$$$$
>  <molecule>
CO/N=C(\C(=O)N[C@@H]1C(=O)N2C(C(=O)O)=C(CSC(=O)c3ccco3)CS[C@H]12)c1csc(N)n1 [Ceftiofur]

>  <bound.type>
≤

>  <minimum inhibitory concentration, µg/mL>
0.25

$$$$
>  <molecule>
CN[C@@H]1[C@H](O)[C@H](NC)[C@H]2O[C@@]3(O)C(=O)C[C@@H](C)O[C@H]3O[C@@H]2[C@H]1O [Spectinomycin]

>  <bound.type>
=

>  <minimum inhibitory concentration, µg/mL>
32

$$$$
>  <molecule>
CN1C[C@@H]2C[C@H]1CN2c1cc2c(cc1F)c(=O)c(C(=O)O)cn2C1CC1 [Danofloxacin]

>  <bound.type>
=

>  <minimum inhibitory concentration, µg/mL>
0.5

$$$$
>  <molecule>
CC[C@H]1OC(=O)C[C@@H](O)[C@H](C)[C@@H](O[C@@H]2O[C@H](C)[C@@H](O)[C@H](N(C)C)[C@H]2O)[C@@H](CCN2CCCCC2)C[C@@H](C)C(=O)/C=C/C(C)=C/[C@@H]1CN1CCCCC1 [Tildipirosin]

>  <bound.type>
>

>  <minimum inhibitory concentration, µg/mL>
16

$$$$
